Reported protein stability index values are given for each entry in this list.
B1: PPEF2 (parent)
chain: AFKAAALIQRWYRRYVARLEMRRR

Variants of: B1
Assay Notes: protein stability index of a GFP-peptide fusion (GPS, HEK-293T) (PSI 1-6); higher = more stable;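 also: lentivirally expressed fusions sorted by FACS into six bins by GFP to DsRed ratio, PSI derived from sequencing read proportions per bin multiplied by bin number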
Setup Conditions: c terminus: a fixed tail appended
Simply state the number, no unit and no words.

Request: // query protein stability index value for entry A5G
Result: 2.94

Request: Param item: A4S
Result: 2.13

***
Request: // query protein stability index value for entry L7S
Result: 2.93

Request: Param item: R22V
Result: 1.66

Request: Param item: Q9I
Result: 2.27

Request: Param item: A6V
Result: 4.97

Request: Param item: R14F
Result: 2.29

Request: Param item: R13M
Result: 1.93

Request: Param item: A5T
Result: 2.55

Request: Param item: R10S
Result: 2.27

Request: Param item: Q9W
Result: 2.98

Request: Param item: A5F
Result: 1.98

Request: Param item: Y12F
Result: 3.17

Request: Param item: R22N
Result: 3.83

Request: Param item: R24A
Result: 3.72

Request: Param item: R18A
Result: 2.12

Request: Param item: E20I
Result: 2.63

Request: Param item: F2G
Result: 2.87

Request: Param item: M21P
Result: 2.18

Request: Param item: E20W
Result: 4.21
